Data provenance: ChEMBL document CHEMBL1137042

Tested on: HL-60
Procedure summary: In vitro inhibitory concentration required against human leukemic HL-60 cell line was determined after 48 hrs of drug exposure using MTT method
Type: functional, cell-based
Experimental context: HL-60, 48 h
Experimental endpoint: IC50 (nM)
Give just the number in nM; leave the unit off.

Supply recorded IC50 for COc1cc([C@@H]2c3cc4c(cc3[C@@H](NC(CSC)C(=O)OCCCn3cc(F)c(=O)[nH]c3=O)[C@H]3COC(=O)[C@H]23)OCO4)cc(OC)c1O (some centres undefined) here. 990

Supply recorded IC50 for COc1cc([C@@H]2c3cc4c(cc3[C@@H](NC(C(=O)OCCCn3cc(F)c(=O)[nH]c3=O)C(C)Cc3ccccc3)[C@H]3COC(=O)[C@H]23)OCO4)cc(OC)c1O (some centres undefined) here. 240

Supply recorded IC50 for COc1cc([C@@H]2c3cc4c(cc3[C@@H](NC(C(=O)OCCCCn3cc(F)c(=O)[nH]c3=O)C(C)Cc3ccccc3)[C@H]3COC(=O)[C@H]23)OCO4)cc(OC)c1O (some centres undefined) here. 530

Supply recorded IC50 for COc1cc([C@@H]2c3cc4c(cc3[C@@H](NC(CSC)C(=O)OCCCCCn3cc(F)c(=O)[nH]c3=O)[C@H]3COC(=O)[C@H]23)OCO4)cc(OC)c1O (some centres undefined) here. 40
